molecular target: Glutamate receptor ionotropic, AMPA (Rattus norvegicus) (UniProt P19491+P19492+P19493+P19490); assay: Displacement of [3H]- AMPA from Ionotropic glutamate receptor of rat brain; set-up: concentration or dose not given beside the values; details: concentration not given here
recorded_endpoint: inhibition (%)

[[record]]
smiles_code = "N[C@H]1COC1=O"
recorded_endpoint = "inhibition"
measured_result = 11

[[record]]
smiles_code = "Nc1ccccc1NC[C@@H](N)C(=O)O"
recorded_endpoint = "inhibition"
measured_result = 0

[[record]]
smiles_code = "Cc1cc2[nH]c(=O)c(=O)n(C(=O)[C@@H](N)CO)c2cc1C"
recorded_endpoint = "inhibition"
measured_result = 24

[[record]]
smiles_code = "Cc1cc2[nH]c(=O)n(C(=O)[C@@H](N)CO)c2cc1C"
recorded_endpoint = "inhibition"
measured_result = 21


(1) N[C@@H]1COC1=O
(2) N[C@@H](Cn1c(=O)c(=O)[nH]c2ccccc21)C(=O)O
(3) Cc1cc(N)c(NC[C@@H](N)C(=O)O)cc1C
Exercise: // smallest inhibition at index 0, largest at the end Answer by listing the labels in the requested order.
Solution: 1, 3, 2

====

biological target: Glutamate receptor ionotropic, kainate (Rattus norvegicus) (UniProt P22756+Q01812+P42260+P42264+Q63273); test: Displacement of [3H]- Kainate from Ionotropic glutamate receptor kainate of rat brain homogenates.; type: tissue-based; set-up: concentration or dose not given beside the values; settings: concentration not given here
recorded_endpoint: inhibition (%)

Some compounds with known inhibition results, for comparison:
[[record]]
smiles_code = "Cc1cc2[nH]c(=O)c(=O)n(C[C@H](N)C(=O)O)c2cc1C"
recorded_endpoint = "inhibition"
measured_result = 38

[[record]]
smiles_code = "Cc1cc(N)c(NC[C@@H](N)C(=O)O)cc1C"
recorded_endpoint = "inhibition"
measured_result = 0

[[record]]
smiles_code = "Cc1cc2[nH]c(=O)c(=O)n(C(=O)[C@H](N)CO)c2cc1C"
recorded_endpoint = "inhibition"
measured_result = 15

[[record]]
smiles_code = "O=[N+]([O-])c1cc2nc(O)c(O)nc2cc1[N+](=O)[O-]"
recorded_endpoint = "inhibition"
measured_result = 81


(A) N[C@@H]1COC1=O
(B) Nc1ccccc1NC[C@@H](N)C(=O)O
Exercise: Field: lower recorded inhibition (choose A or B ) Your answer should be the label attached to the chosen record.
Solution: B

(1) Cc1cc(N)c(NC[C@H](N)C(=O)O)cc1C
(2) N[C@@H](Cn1c(=O)c(=O)[nH]c2ccccc21)C(=O)O
(3) Nc1ccccc1NC[C@H](N)C(=O)O
Exercise: Arrange the 3 compounds by rising inhibition, starting with the smallest. Put the labels in the requested order and list them out.
Solution: 1, 3, 2

(a) N[C@H](Cn1c(=O)c(=O)[nH]c2ccccc21)C(=O)O
(b) Cc1cc2[nH]c(=O)c(=O)n(C[C@@H](N)C(=O)O)c2cc1C
Exercise: Out of a and b , name the one with the higher inhibition. Return value: the label identifying the chosen record.
Solution: b
(b: 27%, a: 5%)

====

target: Glutamate receptor ionotropic, kainate; assay: Inhibition of [3H]- Kainate binding to Ionotropic glutamate receptor kainate in brain homogenates.
pIC50: −log10 of the molar value.
recorded_endpoint: pIC50

[[record]]
smiles_code = "Cc1cc2[nH]c(=O)c(=O)n(C[C@@H](N)C(=O)O)c2cc1C"
test_system = "Glutamate receptor ionotropic, kainate"
measured_result = 4.66


(I) Cc1cc2[nH]c(=O)c(=O)n(C[C@H](CO)NC(=O)OC(C)(C)C)c2cc1C
(II) Cc1cc2[nH]c(=O)c(=O)n(C(=O)[C@@H](CO)NC(=O)OC(C)(C)C)c2cc1C
(III) O=c1[nH]c2cc([N+](=O)[O-])c([N+](=O)[O-])cc2[nH]c1=O
Exercise: Give the ascending ranking of the items by reported pIC50. Give the labels in the order specified.
Solution: II, I, III

(a) Cc1cc(N)c(NC(=O)[C@@H](CO)NC(=O)OC(C)(C)C)cc1C
(b) N[C@@H](Cn1c(=O)c(=O)[nH]c2ccccc21)C(=O)O
(c) Cc1cc2[nH]c(=O)c(=O)n(C[C@H](N)C(=O)O)c2cc1C
Exercise: Rank descending by pIC50. Write out the labels following the order that was asked for.
Solution: b, a, c

====

target: Glutamate receptor ionotropic, AMPA (Rattus norvegicus) (UniProt P19491+P19492+P19493+P19490); assay: Displacement of [3H]- AMPA from Ionotropic glutamate receptor of rat brain; parameters: concentration or dose not given beside the values; settings: concentration not given here
recorded_endpoint: inhibition (%)

Some entries whose results are on file:
[[record]]
smiles_code = "O=[N+]([O-])c1cc2nc(O)c(O)nc2cc1[N+](=O)[O-]"
recorded_endpoint = "inhibition"
measured_result = 99

[[record]]
smiles_code = "N[C@H](Cn1c(=O)c(=O)[nH]c2ccccc21)C(=O)O"
recorded_endpoint = "inhibition"
measured_result = 77

[[record]]
smiles_code = "Cc1cc2[nH]c(=O)c(=O)n(C[C@@H](N)C(=O)O)c2cc1C"
recorded_endpoint = "inhibition"
measured_result = 62

[[record]]
smiles_code = "Nc1ccccc1NC[C@H](N)C(=O)O"
recorded_endpoint = "inhibition"
measured_result = 70

[[record]]
smiles_code = "Cc1cc2[nH]c(=O)c(=O)n(C(=O)[C@H](N)CO)c2cc1C"
recorded_endpoint = "inhibition"
measured_result = 14


(A) Cc1cc2[nH]c(=O)c(=O)n(C[C@H](N)C(=O)O)c2cc1C
(B) Cc1cc(N)c(NC[C@H](N)C(=O)O)cc1C
Exercise: Among A and B , which shows a numerically higher inhibition result? Your answer should be the label attached to the chosen record.
Solution: A
(A: 66%, B: 15%)

====

organism: Rattus norvegicus; assay: Functional antagonist activity was determined by the ability to inhibit AMPA stimulated [3H]norepinephrine release from rat hippocampal slices.; conditions: Hippocampus
recorded_endpoint: EC50 (µM)

[[record]]
smiles_code = "Cc1cc2[nH]c(=O)c(=O)n(C[C@@H](N)C(=O)O)c2cc1C"
recorded_endpoint = "EC50"
measured_result = 300

[[record]]
smiles_code = "Cc1cc2[nH]c(=O)c(=O)n(C[C@H](N)C(=O)O)c2cc1C"
recorded_endpoint = "EC50"
measured_result = 290


====

target: Glutamate receptor ionotropic, kainate (Rattus norvegicus) (UniProt P22756+Q01812+P42260+P42264+Q63273); test: Displacement of [3H]- Kainate from Ionotropic glutamate receptor kainate of rat brain homogenates.; format: tissue-based; parameters: concentration or dose not given beside the values; conditions: concentration not given here
recorded_endpoint: inhibition (%)
Report the figure in % without appending any unit label.

Reference set (2 entries):
[[record]]
smiles_code = "Cc1cc2[nH]c(=O)n(C(=O)[C@@H](N)CO)c2cc1C"
recorded_endpoint = "inhibition"
unit_info = "%"
measured_result = 13

[[record]]
smiles_code = "N[C@H]1COC1=O"
recorded_endpoint = "inhibition"
unit_info = "%"
measured_result = 5


Exercise: If you can, please state the reported inhibition value of "Cc1cc2[nH]c(=O)c(=O)n(C(=O)[C@@H](N)CO)c2cc1C" .
Solution: 16
